System: Lactuca sativa
ASSAY_SUMMARY: Inhibition of germination of Lactuca sativa cv. Roman (lettuce) at 0.1 mM after 5 days relative to untreated control
Assay type: functional
CONDITION_DESCRIPTION: 120 h
The entries below come with measured inhibition at 100 µM values attached.

The following compounds have reported results that may help.
> print(dat)
                        structure.as.smiles  measured.result
1  COC(=O)[C@@]1(C)CCC[C@]2(C)C3=CC(=O)O[C@H](C(C)C)C3=CC[C@@H]12            < 20%
2  COc1nc(C)nc(NC(=O)NS(=O)(=O)c2ccccc2OCCCl)n1            > 40%
3  CO[C@@H]1OC(=O)C=C2C1=C[C@H]1OC(=O)[C@@]3(C)CCC[C@@]2(C)[C@@H]13            > 40%
4  COC(=O)[C@@]1(C)CCC[C@@]2(C)[C@H]1CC=C1COC(=O)C[C@@H]12            < 20%
5  COC(=O)[C@@]1(C)CCC[C@]2(C)C3=C(CC[C@@H]12)COC(=O)C3            < 20%

Query: Under Lactuca sativa: inhibition at 100 µM value of C[C@@]12CCC[C@]3(C)C4=CC(=O)OCC4=C[C@@H](OC1=O)[C@@H]23 ?
Result: 20%

Query: Queued: CO[C@H]1OC(=O)C=C2C1=C[C@H]1OC(=O)[C@@]3(C)CCC[C@@]2(C)[C@@H]13
Result: > 40%

Query: Queued: C[C@]1(C(=O)O)CCC[C@]2(C)C3=CC(=O)OC[C@]34O[C@@H]4C[C@@H]12
Result: < 20%

Query: Queued: COC(=O)[C@@]1(C)CCC[C@]2(C)C3=CC(=O)OC[C@]34O[C@@H]4C[C@@H]12
Result: < 20%

Query: Queued: COC(=O)[C@@]1(C)CCC[C@]2(C)C3=CC(=O)OCC3=CC[C@@H]12
Result: < 20%
